Test System: human TLR9 (Homo sapiens)
Sequence (Q9NR96 26-1032): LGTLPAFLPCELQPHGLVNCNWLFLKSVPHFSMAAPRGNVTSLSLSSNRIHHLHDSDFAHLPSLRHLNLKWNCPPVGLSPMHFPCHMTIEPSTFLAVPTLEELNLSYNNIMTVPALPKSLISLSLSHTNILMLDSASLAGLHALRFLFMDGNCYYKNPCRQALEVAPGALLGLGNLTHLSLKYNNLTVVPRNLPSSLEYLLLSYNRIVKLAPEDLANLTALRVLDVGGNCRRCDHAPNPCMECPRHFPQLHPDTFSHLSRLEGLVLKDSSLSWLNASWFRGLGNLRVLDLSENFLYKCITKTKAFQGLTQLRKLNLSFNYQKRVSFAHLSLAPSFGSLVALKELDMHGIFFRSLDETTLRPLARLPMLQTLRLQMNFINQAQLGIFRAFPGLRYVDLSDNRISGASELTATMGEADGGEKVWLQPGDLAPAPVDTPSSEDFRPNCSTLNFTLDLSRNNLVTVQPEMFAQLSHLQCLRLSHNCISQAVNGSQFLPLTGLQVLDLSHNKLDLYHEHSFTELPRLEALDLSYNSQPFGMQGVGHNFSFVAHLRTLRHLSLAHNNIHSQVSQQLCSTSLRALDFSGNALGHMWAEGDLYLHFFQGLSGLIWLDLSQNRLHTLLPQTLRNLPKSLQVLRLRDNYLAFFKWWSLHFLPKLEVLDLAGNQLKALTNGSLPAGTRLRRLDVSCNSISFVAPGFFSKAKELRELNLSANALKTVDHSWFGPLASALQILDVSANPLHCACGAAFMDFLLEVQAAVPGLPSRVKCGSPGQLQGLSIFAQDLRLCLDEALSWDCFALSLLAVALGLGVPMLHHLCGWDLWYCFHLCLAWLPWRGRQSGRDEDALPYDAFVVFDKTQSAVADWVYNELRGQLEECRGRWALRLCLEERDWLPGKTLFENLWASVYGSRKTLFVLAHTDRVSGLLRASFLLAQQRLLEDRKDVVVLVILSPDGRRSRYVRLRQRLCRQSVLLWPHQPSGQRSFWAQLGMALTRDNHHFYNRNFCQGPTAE
Procedure Text: HEK293-Blue-hTLR-9 cells assay
Assay Setup: HEK293-Blue-hTLR9 cells, ODN2006 stimulation, 20 hrs, SEAP reporter; read-out: HEK/hTLR9 IC50
pIC50: −log10 of the molar value.
Readout Name: pIC50

{"columns": ["Molecule", "Readout Name", "Recorded Number"],
 "data": [
  ["C[C@@H]1CN(c2ccc(C#N)c3ncccc23)C[C@@H]2c3ccc(N4C[C@@H](N)[C@H](O)C4)cc3CN12 (single isomer, unassigned) [Example 40B]", "pIC50", 7.15],
  ["C[C@@H]1CN(c2ccc(C#N)n3nccc23)C[C@@H]2c3ccc(N4C[C@H](N)[C@@](C)(O)C4)cc3CN12 [Example 109]", "pIC50", 6.80],
  ["[2H]c1ccc2c(N3C[C@@H](C)N4Cc5cc(N6CC(C)(N)C6)ccc5[C@H]4C3)ccc(C#N)c2n1 [Example 92]", "pIC50", 6.83],
  ["C[C@@H]1CN(c2ccc(C#N)c3ncccc23)C[C@@H]2c3cccc(NCCN4CC[C@H](O)C4)c3CN12 [Example 80]", "pIC50", 7.20],
  ["C[C@@H]1CN(c2ccc(C#N)c3ncccc23)C[C@@H]2c3ccc(N[C@@H]4CNCCOC4)cc3CN12 [Example 56A]", "pIC50", 7.08],
  ["C[C@@H]1CN(c2ccc(C#N)c3ncccc23)C[C@@H]2c3ccc(N4CCNC[C@@H]4CO)cc3CN12 [Example 10]", "pIC50", 7.03],
  ["CN[C@H]1CN(c2ccc3c(c2)CN2[C@H](C)CN(c4ccc(C#N)c5ncccc45)C[C@H]32)C[C@@H]1OC [Example 23]", "pIC50", 7.03]
]}
